- Tested on: P. falciparum stage V gametocytes
- Parameters: BacTiter-Glo ATP luminescence viability of purified stage V gametocytes in 384-well plates, per cent inhibition versus DMSO
- study.conditions: 48 h, 5 µM; inhibitor
About 3,200 (25%) of roughly 13,000 compounds showed an effect of 50% or more. The list shows a part of the results.
result.type: % Inhibition (%)
All answers are understood in %, so give the number only.

Hey, P. falciparum stage V gametocytes data for O=C(Nc1ccc(Cl)cc1)c1ccc(S(=O)(=O)NCC2CCN(CC3CCCCC3)CC2)cc1 : % Inhibition came out at 84.19

Value sought: % Inhibition, system P. falciparum stage V gametocytes, item O=C(Nc1cccc(-c2cccc(-c3nc4ccccc4[nH]3)c2)c1)c1ccncc1 . Result: 6.238

% Inhibition on P. falciparum stage V gametocytes for Cn1cnc(CCNC(=O)c2cccc(-c3csc(-c4nc5ccccc5[nH]4)c3)c2)c1 is 74.26

Bench note, P. falciparum stage V gametocytes: entry CC(C)CN1C(=O)c2ccccc2C(C(=O)Nc2cccc(C#N)c2)C1c1cccs1 (stereo not shown) , its % Inhibition = 44.13

Let me check: COc1cc(COc2c(C)nc(N)nc2N)cc(OC)c1OC , system P. falciparum stage V gametocytes, measured % Inhibition is 7.837

// returns % Inhibition for O=C(Nc1cccc(C(F)(F)F)c1)c1cccc(S(=O)(=O)NCC2CCCN(Cc3ccccc3)C2)c1 (stereo not shown) with P. falciparum stage V gametocytes; value = -6.422

Recorded % Inhibition for O=C(Nc1cccc(-c2cccc(-c3nc4ccccc4[nH]3)c2)c1)c1cccnc1 on P. falciparum stage V gametocytes was 76.9

Log: P. falciparum stage V gametocytes, compound O=C(Nc1cccc(-c2csc(-c3nc4ccccc4[nH]3)c2)c1)c1ccncc1 , % Inhibition = 13.78

For O=C(Nc1cccc(-c2ccc(-c3nc4ccccc4[nH]3)cc2)c1)c1cccnc1 on P. falciparum stage V gametocytes, measured % Inhibition was -5.994

With P. falciparum stage V gametocytes as the test system, Nc1nc2c(ncn2OC[C@H]2COP(=O)(O)CO2)c(=O)[nH]1 showed % Inhibition of 1.746
